MEASURED_TARGET: acyl-CoA:cholesterol O-acyltransferase (ACAT) (Oryctolagus cuniculus)
Construct: The intestinal mucosa of a white rabbit was homogenized and microsomal fraction was obtained by stepwise centrifugation; from tissue; host or cells: intestinal mucosa of white rabbit, microsomal fraction
PROCEDURE_DETAILS: Inhibitory activity on acyl-CoA:cholesterol O-acyltransferase (ACAT), intestinal mucosa microsomal fraction, [1-14C]oleyl-CoA incorporation into cholesterol esters
Type: biochemical, white rabbit
CONDITIONS_USED: 0.01 μM; read-out: Inhibition rate %
OBSERVATION_TYPE: inhibition at 0.01 µM (%)
Could you give me the number in %? Just the number is fine.

The examples below pair each entry with its known result.
SMILES_DATA	ASSAY_RESULT
Cc1cccc(C(C)C)c1NC(=O)Nc1sc2cc3c(cc2c1-c1ccccc1Cl)CCC3	75.4
Cc1ccc2oc(NC(=O)Nc3c(C(C)C)cccc3C(C)C)c(-c3ccccc3Cl)c2c1	69.3
Cc1cc2oc(NC(=O)Nc3c(C(C)C)cccc3C(C)C)c(-c3ccccc3Cl)c2cc1C	77.2
Cc1cccc(C(C)C)c1NC(=O)Nc1oc2ccc(Cl)cc2c1-c1ccccc1Cl	76.8
CCc1cccc(CC)c1NC(=O)Nc1sc2cc(C)c(C)cc2c1-c1ccccc1Cl	69.9
O=C(Nc1sc2cc3c(cc2c1-c1ccccc1Cl)CCC3)Nc1c(Cl)cccc1Cl	66.4
Cc1cc2oc(NC(=O)Nc3c(C)cccc3C)c(-c3ccccc3Cl)c2cc1C	37.6

Report inhibition at 0.01 µM for CCc1cccc(CC)c1NC(=O)Nc1sc2cc3c(cc2c1-c1ccccc1C)CCC3 tested on acyl-CoA:cholesterol O-acyltransferase (ACAT) (Oryctolagus cuniculus). 80.1

---

MEASURED_TARGET: acyl-CoA:cholesterol O-acyltransferase (ACAT) (Oryctolagus cuniculus, UniProt G1SFD9)
Construct: The intestinal mucosa of a white rabbit was homogenized and microsomal fraction was obtained by stepwise centrifugation; from tissue; host or cells: intestinal mucosa of white rabbit, microsomal fraction
Sequence (G1SFD9 1-524): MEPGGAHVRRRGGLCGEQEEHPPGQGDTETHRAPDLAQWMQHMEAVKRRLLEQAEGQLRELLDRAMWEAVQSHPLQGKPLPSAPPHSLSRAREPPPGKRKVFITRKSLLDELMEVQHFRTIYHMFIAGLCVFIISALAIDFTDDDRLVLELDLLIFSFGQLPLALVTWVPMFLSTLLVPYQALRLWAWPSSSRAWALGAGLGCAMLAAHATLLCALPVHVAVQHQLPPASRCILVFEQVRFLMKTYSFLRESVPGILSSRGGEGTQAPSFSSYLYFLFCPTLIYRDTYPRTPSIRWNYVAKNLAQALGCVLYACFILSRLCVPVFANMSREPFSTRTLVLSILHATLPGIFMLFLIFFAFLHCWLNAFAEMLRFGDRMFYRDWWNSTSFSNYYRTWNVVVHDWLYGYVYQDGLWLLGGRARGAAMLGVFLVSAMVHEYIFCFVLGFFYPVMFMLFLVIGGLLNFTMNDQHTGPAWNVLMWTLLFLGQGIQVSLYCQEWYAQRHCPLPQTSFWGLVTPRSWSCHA
PROCEDURE_DETAILS: Inhibitory activity on acyl-CoA:cholesterol O-acyltransferase (ACAT), intestinal mucosa microsomal fraction, [1-14C]oleyl-CoA incorporation into cholesterol esters
Type: biochemical, white rabbit
CONDITIONS_USED: 1 μM; read-out: Inhibition rate %
OBSERVATION_TYPE: inhibition at 1 µM (%)
Your answer should be a plain number; it is taken to be in %.

SMILES_DATA	inhibition at 1 µM [%]
Cc1ccc(S(=O)(=O)n2c(NC(=O)Nc3ccc(F)cc3F)c(-c3ccccc3Cl)c3cc(C)cc(C)c32)cc1	75.4
Cc1cc2oc(NC(=O)Nc3c(C(C)C)cccc3C(C)C)c(-c3ccccc3Cl)c2cc1C	99.5
Cc1ccccc1NC(=O)Nc1oc2ccc(Cl)cc2c1-c1ccccc1Cl	98.5
Cc1cc(C)c2c(c1)c(-c1ccccc1Cl)c(NC(=O)Nc1ccc(F)cc1F)n2C	81.7
CC(C)c1cccc(C(C)C)c1NC(=O)Nc1oc2ccc(Cl)cc2c1-c1ccccc1Cl	99.4

If you can, please state the reported inhibition at 1 µM value of Cc1cc(C)c2oc(NC(=O)Nc3ccc(F)cc3F)c(-c3ccccc3Cl)c2c1 . 92.7

Please report the recorded inhibition at 1 µM for CCc1cccc(CC)c1NC(=O)Nc1oc2ccc(Cl)cc2c1-c1ccccc1Cl . 99.4

I am curious: what inhibition at 1 µM value has been reported for Cc1cc(C)c2oc(NC(=O)Nc3c(F)cc(F)cc3F)c(-c3ccccc3Cl)c2c1 ? 95.6
